Give No of serum samples >30% inhibition (30% CCP) without SCP (serum samples) for every item shown.
# targetOrSystem: pre-existing anti-drug antibodies (ADA) present in human sera
# assayInfo: pre-existing ADA ELISA, scFv coated, human sera unspiked vs spiked
Give bare numbers.

# annotated cases, reported No of serum samples >30% inhibition (30% CCP) without SCP (serum samples) shown
binder: PRO2990 (scFv 54-21-H03-sc01_(L12S, V103T, L144T)) (scFv, VH substitutions, AHo numbering; also called PRO1922-L12S-V103T-L144T) scFv: DIQMTQSPSSLSASVGDRVTITCQASESIYSSLAWYQQKPGKAPKLLIYLASTLASGVPSRFSGSGSGTDFTLTISSLQPEDFATYYCQSTDYTTSTHRNSFGTGTKVTVLGGGGGSGGGGSGGGGSGGGGSEVQLVESGGGSVQPGGSLRLSCAASGFSFSTTYYMCWVRQAPGKGLEWIGCTNTASSVRTYYATWAKGRFTISRDNSKNTVYLQMNSLRAEDTATYYCARDMGFADYALNLWGQGTTVTVSS
resultNumber: 5
--
binder: PRO3313 (scFv 37-20-B03-sc09.1_(T101S, T146R)) (scFv, PRO2230 variant; VH substitutions, AHo numbering; also called PRO2230 T101S-T146R) scFv: DIQMTQSPASLSASVGDRVTITCQASQSIGTYLAWYQQKPGKPPKLLIYRAFILASGVPSRFSGSGSGTDFTLTISSLQPEDFATYYCQSNFYSDSTTIGPNAFGTGTKVTVLGGGGGSGGGGSGGGGSGGGGSEVQLVESGGGLVQPGGSLRLSCAASGFSFNSDYWIYWVRQAPGKGLEWIASIYGGSSGNTQYASWAQGRFTISRDNSKNTVYLQMNSLRAEDSAVYFCARGYVDYGGATDLWGQGTLVRVSS
resultNumber: 5
--
binder: PRO3322 (scFv 54-21-H03-sc01_(L12R, T101R, L144A, T146Q)) (scFv, PRO1922 variant; VH substitutions, AHo numbering; also called PRO1922 L12R-T101R-L144A-T146Q) scFv: DIQMTQSPSSLSASVGDRVTITCQASESIYSSLAWYQQKPGKAPKLLIYLASTLASGVPSRFSGSGSGTDFTLTISSLQPEDFATYYCQSTDYTTSTHRNSFGTGTKVTVLGGGGGSGGGGSGGGGSGGGGSEVQLVESGGGRVQPGGSLRLSCAASGFSFSTTYYMCWVRQAPGKGLEWIGCTNTASSVRTYYATWAKGRFTISRDNSKNTVYLQMNSLRAEDRAVYYCARDMGFADYALNLWGQGTAVQVSS
resultNumber: 0
--
binder: PRO2985 (scFv 37-20-B03-sc09.1_(T101A)) (scFv, PRO2230 variant; VH substitution, AHo numbering; also called PRO2230 T101A) scFv: DIQMTQSPASLSASVGDRVTITCQASQSIGTYLAWYQQKPGKPPKLLIYRAFILASGVPSRFSGSGSGTDFTLTISSLQPEDFATYYCQSNFYSDSTTIGPNAFGTGTKVTVLGGGGGSGGGGSGGGGSGGGGSEVQLVESGGGLVQPGGSLRLSCAASGFSFNSDYWIYWVRQAPGKGLEWIASIYGGSSGNTQYASWAQGRFTISRDNSKNTVYLQMNSLRAEDAAVYFCARGYVDYGGATDLWGQGTLVTVSS
resultNumber: 2

Please look at the following binder next.
The reported value for PRO3324 (scFv 54-21-H03-sc01_(T101R, T146Q)) (scFv, PRO1922 variant; VH substitutions, AHo numbering; also called PRO1922 T101R-T146Q) scFv: DIQMTQSPSSLSASVGDRVTITCQASESIYSSLAWYQQKPGKAPKLLIYLASTLASGVPSRFSGSGSGTDFTLTISSLQPEDFATYYCQSTDYTTSTHRNSFGTGTKVTVLGGGGGSGGGGSGGGGSGGGGSEVQLVESGGGLVQPGGSLRLSCAASGFSFSTTYYMCWVRQAPGKGLEWIGCTNTASSVRTYYATWAKGRFTISRDNSKNTVYLQMNSLRAEDRAVYYCARDMGFADYALNLWGQGTLVQVSS in terms of No of serum samples >30% inhibition (30% CCP) without SCP (serum samples) is 2
